Each recorded value in this set is attributed to PubChem BioAssay (NCI).

TGI: recorded values
Tested on: NCI-H23 lung
experiment-description: NCI tumour cell line growth inhibition, 48 h

INSERT INTO results (compound, measurement) VALUES
  ('COc1ccc2c(c1)/C(=C\c1c(Cl)n(C)c3ccccc13)C(=O)N2', '11.4 µM');

From here, focus on the item given below.
stdin: Consider the compound shown here: "CCOC(=O)c1[nH]cc(C)c1-c1c[nH]c2ccccc12" What is its recorded TGI?
stdout: > 100 µM

* * *

System: SW-620 colon
experiment-description: NCI tumour cell line growth inhibition, 48 h
endpoint-name: TGI

Use these answered entries as a reference point.
INSERT INTO results (molecule, measurement) VALUES
  ('C=C(C)[C@@H]1CCC2=C[C@H](OC2=O)[C@@]2(C)C[C@@H]2C(=O)/C=C(/C)C(=O)[C@H]1OC(C)=O', '> 44.6 µM'),
  ('C/C=C1\CNC1C(=O)O (stereo not given)', '> 100 µM'),
  ('CC1(C)N=C(N)N=C(N)N1c1cccc(CCCCOc2ccccc2)c1', '> 100 µM'),
  ('Cc1c(NC(=O)c2cc([N+](=O)[O-])cc([N+](=O)[O-])c2)c(=O)n(-c2ccccc2)n1C', '> 100 µM');

From here, focus on the item given below.
stdin: Under SW-620 colon: TGI value of COC1OC(COS(=O)(=O)c2ccc(C)cc2)C(O)C(OS(=O)(=O)c2ccc(C)cc2)C1OS(=O)(=O)c1ccc(C)cc1 (stereo not given) ?
stdout: > 100 µM
